# Test system: dsDNA
# Assay: Binding affinity to synthetic 27-mer duplex DNA assessed as residual binding at 60 uM after 4 mins by UV-Vis spectrophotometric analysis relative to control
# Assay type: nucleic-acid assay
Reported Property: Activity (%)
Write the number in % without appending the unit.

Look up and report measured Activity for this entry: "O=C1c2ccccc2C(=O)c2c1oc1c3c(ccc21)OCN(Cc1ccco1)C3"
2

***
Look up and report measured Activity for this entry: O=C1c2ccccc2C(=O)c2c1oc1c3c(ccc21)OCN(CC1CCCO1)C3 (stereo unspecified)
20

Look up and report measured Activity for this entry: "CC(=O)c1c(C)oc2c1c1c(c3ccccc32)OCN(CCCN2CCOCC2)C1"
22

Look up and report measured Activity for this entry: "O=C1c2ccccc2C(=O)c2c1oc1c3c(ccc21)OCN(C1CCCCC1)C3"
18

Look up and report measured Activity for this entry: "O=C1c2ccccc2C(=O)c2c1oc1c3c(ccc21)OCN(Cc1ccccc1)C3"
12

Look up and report measured Activity for this entry: O=C1c2ccccc2C(=O)c2c1oc1c3c(ccc21)OCN(CC1CCS(=O)(=O)C1)C3 (stereo unspecified)
16

---

This section presents compounds with their documented Activity values.
# System: Quadruplex DNA
# Assay: Binding affinity to human TERT1 G-quadruplex DNA assessed as residual binding at 60 uM after 4 mins by UV-Vis spectrophotometric analysis relative to control
# Format: nucleic-acid assay
Write the number in % without appending the unit.

Under Quadruplex DNA: report Activity of CC(c1ccccc1)N1COc2ccc3c4c(oc3c2C1)C(=O)c1ccccc1C4=O (stereo not given) .
82

---

# Test system: Quadruplex DNA
# Assay: Binding affinity to synthetic cMYC G-quadruplex DNA assessed as residual binding at 60 uM after 4 mins by UV-Vis spectrophotometric analysis relative to control
# Type: nucleic-acid assay
Reported Property: Activity

Use the examples below as a reference point.
Look up and report measured Activity for this entry: "O=C1c2ccccc2C(=O)c2c1oc1c3c(ccc21)OCN(CCCn1ccnc1)C3"
94%

Look up and report measured Activity for this entry: "O=C1c2ccccc2C(=O)c2c1oc1c3c(ccc21)OCN(Cc1ccccc1)C3"
87%

Look up and report measured Activity for this entry: "O=C1c2ccccc2C(=O)c2c1oc1c3c(ccc21)OCN(CCCN1CCOCC1)C3"
89%

Look up and report measured Activity for this entry: "O=C1c2ccccc2C(=O)c2c1oc1c3c(ccc21)OCN(CCC1=CCCCC1)C3"
84%

Look up and report measured Activity for this entry: "CC(=O)c1c(C)oc2c1c1c(c3ccccc32)OCN(CCCN2CCOCC2)C1"
74%

Look up and report measured Activity for this entry: O=C1c2ccccc2C(=O)c2c1oc1c3c(ccc21)OCN(CC1CCS(=O)(=O)C1)C3 (stereo unspecified)
73%

Look up and report measured Activity for this entry: "O=C1c2ccccc2C(=O)c2c1oc1c3c(ccc21)OCN(Cc1ccco1)C3"
93%

Look up and report measured Activity for this entry: "O=C1c2ccccc2C(=O)c2c1oc1c3c(ccc21)OCN(Cc1cccnc1)C3"
94%

***
Look up and report measured Activity for this entry: O=C1c2ccccc2C(=O)c2c1oc1c3c(ccc21)OCN(CC1CCCO1)C3 (stereo unspecified)
90%

Look up and report measured Activity for this entry: CC(c1ccccc1)N1COc2ccc3c4c(oc3c2C1)C(=O)c1ccccc1C4=O (stereo unspecified)
84%

Look up and report measured Activity for this entry: "O=C1c2ccccc2C(=O)c2c1oc1c3c(ccc21)OCN(C1CCCCC1)C3"
86%
